Biological target: Aldo-keto reductase family 1 member B1 (Rattus norvegicus)
Experiment: Inhibition of Rattus norvegicus albino (rat) kidney aldose reductase using D-L-glyceraldehyde as substrate assessed as decrease in NADPH concentration at 3.3 x 10^-6 M after 5 min by spectrophotometric analysis
Measurement name: inhibition (%)
Give bare numbers, in %.

| Compound | inhibition (%) |
| --- | --- |
| C=C(NC(C)=O)C(=O)NCc1ccccc1 | 2.48 |
| C=C(NC(C)=O)C(=O)NCc1ccccc1OC | 0 |
| C=C(NC(C)=O)C(=O)NC(C)(C)CC | 3.22 |

Would you mind listing inhibition for each of the following compounds?
1. C=C(NC(C)=O)C(=O)NC(C)C
2. C=C(NC(C)=O)C(=O)NC(C)CC (configuration not stated)
3. C=C(NC(C)=O)C(=O)NCCCCl
4. C=C(NC(C)=O)C(=O)N1CCCC1

stdout:
1. 3.77
2. 0
3. 19.6
4. 0
